Origin of measurements: paper PMC3281113

# tested.on: horse spleen apoferritin (Equus caballus, UniProt P02791)
# Construct: gene FTL; native spleen apoferritin from Sigma-Aldrich, 24-mer, heavy and light chains in approximate mole ratio 1:6; with Ferritin heavy chain
# Sequence (P02791 2-175): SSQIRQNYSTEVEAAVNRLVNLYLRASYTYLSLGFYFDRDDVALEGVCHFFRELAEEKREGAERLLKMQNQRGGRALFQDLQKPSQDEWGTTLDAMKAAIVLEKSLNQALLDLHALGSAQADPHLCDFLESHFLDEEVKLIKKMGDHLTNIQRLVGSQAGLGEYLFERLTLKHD
# assay.protocol: isothermal titration calorimetry
# Assay type: binding
# conditions.used: read-out: K d
observation.type: Kd (µM)
Unit µM implied. Number only.

- compound: "CCC[C@@H](C)C1(CC)C(=O)NC(=S)NC1=O [R-form of thiopental]"
  observation.type: "Kd"
  units.label: "µM"
  observed: 29.3

Prompt line: For the compound CCC[C@H](C)[C@@]1(CC)C(=O)N=C(S)NC1=O [S-enantiomer of thiopental] , report Kd.
Response line: 18.7
